This collection of values is drawn from ChEMBL document CHEMBL5523732.

# TARGET_OF_ASSAY: Replicase polyprotein 1ab (Severe acute respiratory syndrome coronavirus 2, UniProt P0DTD1)
# note: boundary value 0.4 µM maps to rule not met; IC50 below it maps to rule met

Challenge: A record lists CC(C)C[C@H](NC(=O)OCC1CC(=O)N(Cc2ccccc2)C1)C(=O)N[C@H](C=O)C[C@@H]1CCNC1=O (some centres not stated) . Is its IC50 below 0.4 µM?
Response given: rule not met

Challenge: A record lists CC(C)C[C@H](NC(=O)OC[C@@H]1CCC(=O)N1CCc1ccccc1)C(=O)N[C@@H](C[C@@H]1CCNC1=O)C(O)S(=O)(=O)O (some centres not stated) . Is its IC50 below 0.4 µM?
Response given: rule not met

Challenge: A record lists `CC(C)C[C@H](NC(=O)OC[C@@H]1CCC(=O)N1Cc1ccccc1)C(=O)N[C@H](C=O)C[C@@H]1CCNC1=O` . Is its IC50 below 0.4 µM?
Response given: rule not met

Challenge: A record lists CC(C)C[C@H](NC(=O)OC[C@@H]1CCC(=O)N1CC1CCCCC1)C(=O)N[C@@H](C[C@@H]1CCNC1=O)C(O)S(=O)(=O)O (some centres not stated) . Is its IC50 below 0.4 µM?
Response given: rule met

Challenge: A record lists CC(C)C[C@H](NC(=O)OCC1CCN(C[C@H]2C[C@H]3CC[C@@H]2C3)C1=O)C(=O)N[C@H](C=O)C[C@@H]1CCNC1=O (some centres not stated) . Is its IC50 below 0.4 µM?
Response given: rule not met

Challenge: A record lists CC(C)C[C@H](NC(=O)OCC1CCN(Cc2ccco2)C1=O)C(=O)N[C@@H](C[C@@H]1CCNC1=O)C(O)S(=O)(=O)O (some centres not stated) . Is its IC50 below 0.4 µM?
Response given: rule not met

* * *

# Tested on: SARS-CoV-2
# ASSAY_TEXT: Antiviral activity against SARS CoV-2 Wuhan-Hu-1 infected in HEK293T cells incubated for 24 hrs
# Assay type: functional, organism-based
# RECORDED_CONDITIONS: Severe acute respiratory syndrome coronavirus 2, Wuhan-Hu-1, HEK-293T
pEC50: −log10 of the molar value.
Classify by measured pEC50: True if it is equal to or exceeds 7, False if it is smaller.

Challenge: State whether the measured pEC50 reaches 7, counting equality as reaching it, for `CC(C)C[C@H](NC(=O)OC[C@@H]1CCC(=O)N1Cc1cccc(F)c1)C(=O)N[C@H](C=O)C[C@@H]1CCNC1=O`
Response given: True

Challenge: State whether the measured pEC50 reaches 7, counting equality as reaching it, for CC(C)C[C@H](NC(=O)OC[C@@H]1CCC(=O)N1Cc1ccc2c(c1)OC(F)(F)O2)C(=O)N[C@@H](C[C@@H]1CCNC1=O)C(O)S(=O)(=O)O (some centres not stated)
Response given: False

Challenge: State whether the measured pEC50 reaches 7, counting equality as reaching it, for CC(C)C[C@H](NC(=O)OCC1CCN(CC2CCCCC2)C1=O)C(=O)N[C@H](C=O)C[C@@H]1CCNC1=O (some centres not stated)
Response given: True

* * *

# TARGET_OF_ASSAY: Replicase polyprotein 1ab (Severe acute respiratory syndrome coronavirus 2, UniProt P0DTD1)
# note: boundary value 500 nM maps to Not satisfied; IC50 below it maps to Satisfied

Challenge: A record lists CC(C)C[C@H](NC(=O)OCC1CCN(C[C@H]2C[C@H]3C=C[C@@H]2C3)C1=O)C(=O)N[C@@H](C[C@@H]1CCNC1=O)C(O)S(=O)(=O)O (stereo partly specified) . Is its IC50 below 500 nM?
Response given: Not satisfied

Challenge: A record lists CC(C)C[C@H](NC(=O)OCC1CCN(Cc2ccco2)C1=O)C(=O)N[C@H](C=O)C[C@@H]1CCNC1=O (stereo partly specified) . Is its IC50 below 500 nM?
Response given: Not satisfied

Challenge: A record lists `CC(C)C[C@H](NC(=O)OC[C@@H]1CCC(=O)N1Cc1ccc2c(c1)OC(F)(F)O2)C(=O)N[C@H](C=O)C[C@@H]1CCNC1=O` . Is its IC50 below 500 nM?
Response given: Satisfied

Challenge: A record lists CC(C)C[C@H](NC(=O)OCC1CC(=O)N(CC2CC3C=CC2C3)C1)C(=O)N[C@@H](C[C@@H]1CCNC1=O)C(O)S(=O)(=O)O (stereo partly specified) . Is its IC50 below 500 nM?
Response given: Satisfied
